Conditions: buffer; pH 7.4; 200.0 µM
result.type: solubility kinetic

{"columns": ["molecule", "result"],
 "data": [
  ["O=C1NC2(CCCCCCC2)C(=O)N1Cc1ccc(F)cc1", "10.5 µg/mL"]
]}

# context switch: different molecule, same solubility kinetic
input: Reported solubility kinetic for COc1cc2nc(NC(=O)c3ccc(Cl)cc3)sc(=O)c2cc1OC : what is it?
output: 3.7 µg/mL

###

Settings: buffer; pH 7.4; 200.0 µM
Below, each of the molecules is paired with its reported log10(solubility kinetic) value.
Scale: decimal log of solubility kinetic, solubility kinetic in µg/mL.

# count of solved cases: 8
{"columns": ["molecule", "result.number"],
 "data": [
  ["Cc1ccc(NP(=O)(c2ccccc2)c2nc3ccccc3s2)cc1 (stereo not given)", 0.34],
  ["Cc1cc(N2CC(C)OC(C)C2)nc(C(C)C)n1 (stereo not given)", 1.34],
  ["C=CCOc1ccccc1CN1CCCCCC1", 1.46],
  ["CSc1sccc1/C=N/O", 1.26],
  ["CCCCC(=O)Nc1ccccc1N1CCN(c2ccccc2)CC1", 0.91],
  ["CSc1nc2ccccc2c(=O)n1C1CCOC(C)(C)C1 (stereo not given)", 1.45],
  ["COc1ccc(C(=O)n2cnc3ccccc32)cc1Br", 1.67],
  ["NCCCN1CCN(c2ccccc2)CC1", 1.42]
]}

input: Reported log10(solubility kinetic) for C=CCSc1nc(C)c(CC(=C)C)c(=O)[nH]1 : what is it?
output: 1.51

input: Reported log10(solubility kinetic) for Cc1sc2nc(-c3cccnc3)[nH]c(=O)c2c1-c1ccccc1 : what is it?
output: 0.32

###

Conditions: buffer; pH 7.4; 200.0 µM
Below, each of the compounds is paired with its reported solubility kinetic value.
I only need the number, in µg/mL, no unit after it.

# count of solved cases: 5
{"columns": ["smiles.structure", "endpoint.unit", "solubility kinetic"],
 "data": [
  ["Cc1cc(=S)c2ccccc2[nH]1", "µg/mL", 20.5],
  ["COc1cc(OC)c(C(=O)O/N=C(\\N)c2ccccc2)cc1OC", "µg/mL", 45.7],
  ["O=C(/C=C/c1cccnc1)c1ccc([N+](=O)[O-])cc1", "µg/mL", 9.8],
  ["Cc1cc(C)c(C(=O)CN2C(=O)NC3(CCCCC3)C2=O)cc1C", "µg/mL", 2],
  ["O=C(/C=C/Nc1ccccc1O)c1ccco1", "µg/mL", 5.5]
]}

input: Reported solubility kinetic for COc1ccc(OC)c(NC(=O)CCCc2ccccc2)c1 : what is it?
output: 24.5

input: Reported solubility kinetic for Cc1noc(C)c1S(=O)(=O)Nc1ccccc1Oc1ccccc1 : what is it?
output: 37.5

input: Reported solubility kinetic for Cc1cccc(NC(=O)c2ccc(N3CCOCC3)c([N+](=O)[O-])c2)n1 : what is it?
output: 38.1

input: Reported solubility kinetic for N#C/C(=C\c1ccncc1)c1nc2ccccc2[nH]1 : what is it?
output: 24.8

input: Reported solubility kinetic for N/C(=N\OC(=O)CCCc1ccccc1)c1ccccc1 : what is it?
output: 7.2

###

Conditions: buffer; pH 7.4; 200.0 µM
result.type: solubility kinetic (µg/mL)
I only need the number, in µg/mL, no unit after it.

{"columns": ["smiles.structure", "endpoint.unit", "result.number"],
 "data": [
  ["Cc1ccc(S(=O)(=O)N2CCN(C(=O)COC(=O)/C=C/c3ccc([N+](=O)[O-])cc3)CC2)c(C)c1", "µg/mL", 1.9]
]}

input: Reported solubility kinetic for CC(=O)Nc1nc2ccccc2n1Cc1ccc(Cl)cc1 : what is it?
output: 7.8

input: Reported solubility kinetic for O=[N+]([O-])c1cccc(CN2CCC(Cc3ccccc3)CC2)c1 : what is it?
output: 17.3

input: Reported solubility kinetic for NC(=NC(=O)c1cccc(C(F)(F)F)c1)c1ccc(C(F)(F)F)cn1 : what is it?
output: 0.9
